assay: yeast display, Sf9 membrane polyspecificity reagent, FACS + sequencing; frameworks hold sequencing errors

>  <residue_string>
QVQLVESGGGLVQAGGSLRLSCPASGSTLVYNDMGWYRQAPGKEREFVAAIRSNDGSTYYADSVKGRFTISRDNAKNTVYLQMNSLKPEDTAVYYCNKDVWDGYDWPEFDYWGQGTQVTVSS

>  <polyreactivity (PSR sort gate)>
low polyreactivity

$$$$
>  <residue_string>
QVQLVESGGGLVQAGGSLRLSCAASGITFATNAMGWYRQAPGKERELVAGITSGGSTYYADSVKGRFTISRDNAKNTVYLQMNSLKPEDTAVYYCAKRYHYWYGTGYDYWGQGTQVTVSS

>  <polyreactivity (PSR sort gate)>
low polyreactivity

$$$$
>  <residue_string>
QVHLVESGGGLVQAGGSLRLSCAASGRIFYYNAIGWYRQAPGKERELVANITRARGTYYADSVKGPFTISRDNAKNTVYLQMNSLKPEDTAVYYCAKRHPIVDDYKGDYWGQGTQVTVSS

>  <polyreactivity (PSR sort gate)>
low polyreactivity

$$$$

---

test: yeast display, Sf9 membrane polyspecificity reagent, FACS + sequencing; frameworks hold sequencing errors

>  <residue_string>
QVQLVESGGGLLQAGGSLRLSCAASGITFGRNTMGWYRQAPGKERELVAAINSGGSTTYADSVKGRFTISRDNAKNTVYLQMISLKPEDSAVYYCNKSSTGWTATYDYWGQGTQVTVSS

>  <polyreactivity (PSR sort gate)>
low polyreactivity

$$$$
>  <residue_string>
QVQLVESGGGLVQAGGILRLSCAASGFIFWDYAMGWYRQAPGTERELVADISDSGGDTYYADSVKGRFTISRDNAKNTVYLQMNSLKPEDTAVYYCAADVELWVFRGQQYDYWGQVTQVTVSS

>  <polyreactivity (PSR sort gate)>
low polyreactivity

$$$$
>  <residue_string>
QVQLVQSGGGLVQAGGSLRLSCAASGFTLRRNAMGWYRQAPGKERELVAAISSSGSTYYADSVKGRFTISRDNAKNTVYLQMNSLKPEDTAVYYCAASATYKVRGGYWGQGTQVTVSS

>  <polyreactivity (PSR sort gate)>
high polyreactivity

$$$$
>  <residue_string>
QVLLQESGGGLVQAGGSLRLSCAASGSIFLFYTMGWYRQAPVKEREFVAGITLGTTTYNADSVKGRFTISRDNVKNTLYLQMNSLKPEDTAVYYCAVAVGHYTEFWYWGQGTQVTMSS

>  <polyreactivity (PSR sort gate)>
high polyreactivity

$$$$
>  <residue_string>
QFQLVESVGGLVQAGGSLRLSCAASGRTGVNAMGWYRQAPRKERELVAAINNGDSTYYADSVKGRFTISRDNAKNTVYLQMNSLKPEDTAVYYCAARSALYPKYESWGQGTQVTVSS

>  <polyreactivity (PSR sort gate)>
low polyreactivity

$$$$

---

assay: yeast display, Sf9 membrane polyspecificity reagent, FACS + sequencing; frameworks hold sequencing errors

>  <residue_string>
QVQLVESGGGLVQAGGSLRLSCAASGPTFRRYGMGWYRQAPGKERELVDAITTRGGSTYYADSVKGRFTISRDNAKNTVYLQMNSLKPEDTAVYYCAAPRKYFYSSATGNYWGQGTQVTVSS

>  <polyreactivity (PSR sort gate)>
high polyreactivity

$$$$
>  <residue_string>
QVQLVQSGGGIVQAGGSLRLSCAAYGITFGRNNMGWDRQAPGKERELVAALDSGGNTYADSVKGRFTISRDNAKQTVYVQMNSLKPEDTAVYDCAVDGGEFSSYGYWGQGTQVTVSS

>  <polyreactivity (PSR sort gate)>
low polyreactivity

$$$$
>  <residue_string>
QVQLVESGGGLVQAGGSLRLSCAASGFTFYPYAMGWYRQAPGKERELVAGITRGGSTNYADSVKGRFTISRDNAKNTVYLQMNSLKPEDTAVYYCAAKYGPYFRRLDYWGQGTQVTVSS

>  <polyreactivity (PSR sort gate)>
high polyreactivity

$$$$
>  <residue_string>
QFQLVESGRGLVQAGGSLRLICAASGSIFIPYAMGWYRQAPGKERELVAAISSSGSTYYADSVKGRFTISRDNAKNTVYLQMNSLKPEDTAVYYCAAERHYSYSSYDYWGQGTQVTVSS

>  <polyreactivity (PSR sort gate)>
low polyreactivity

$$$$
>  <residue_string>
QVQLVESGGGLVQAGGSLRLSCAASGITFQTYAMGWYRQAPGKERELVAAIRWGGGTTYYADSVKGRFTISRDNAKNTVYLQMNSLKPEDTAVYYCAARTYYRRGGRVDYWGQGTQVTVSS

>  <polyreactivity (PSR sort gate)>
high polyreactivity

$$$$
>  <residue_string>
QVQLVESGGGLVQAGGSLRLSCDASGSNFFYARGWSRQAPGRERELVADITYTGGSKYADSVKGRFTISRDNAKNTVDLQLNILKPEDTAVSYCAKLDGGLFDYWGQGTQVNVSS

>  <polyreactivity (PSR sort gate)>
low polyreactivity

$$$$
>  <residue_string>
QVQLVESGGGLVQAGGSLRLSCAASGFTFARYAMGWYRQAPGKERELVASISGSGGSTYYADSVKGRFTISRDNAKNTVYLQMNSLKPEDTAVYYCAADTWYGFDWGQGTQVTVSS

>  <polyreactivity (PSR sort gate)>
high polyreactivity

$$$$
>  <residue_string>
QVQLVESGGGLVQAGGSLSLSCAASGSIFLRNAMGWYRQAPGKERELVAAITWDSGDTYYADSVKGRFTISRDHAKNTVYLQMNSLKPEDTAVYYCNTLGLSSDWGQGTQVTVSS

>  <polyreactivity (PSR sort gate)>
low polyreactivity

$$$$
>  <residue_string>
QVQLVESGGGLVQAGGSLSIICAASGFTFRYYAMGWYREAPGKERELVAAISKSGTSTYYADSVKGRFTISRDNAKNTVYLQMNSLKPEDTAVYYCAARRGRRYYYWGQGTQVTVSS

>  <polyreactivity (PSR sort gate)>
high polyreactivity

$$$$
>  <residue_string>
QVQLVESGGGLVQAGGSLRLSCAASGNIFKVNAMGWYRQAPGKERELVAGISWSGGSTYYADSVKGRFTISRDNAKNTVYLQMNSLKPEDTAVYYGNVGRGYWGYLYDYWGQGTQGTVSS

>  <polyreactivity (PSR sort gate)>
low polyreactivity

$$$$
>  <residue_string>
QVQLVESGGGLVQAGGSLRLSCAASGRTFGLNAMGWYRQAPGKERELVAAITYSGGSTYYADSVKGRFTISRDNAKNTVYLQMNSLKPEDTAVYYCAKEVQTYWYHYYYWGQGTQVTVSS

>  <polyreactivity (PSR sort gate)>
high polyreactivity

$$$$
>  <residue_string>
QVQLVESGGGLVQAGGSLRLSCAASGITFNLYAMGWYRQAPGKERELVASINSGGSPYYADSVKGRFTISRDNAKNTVYLQMNSLKPEDTAVYYCAAETSYYYRGYWKSYDYWGQGTQVTVSS

>  <polyreactivity (PSR sort gate)>
high polyreactivity

$$$$
>  <residue_string>
QVQVVESGGGLVQAGGSLRLSCAASGSIFDRNAMGWYRKAPGKERELVAGISRSGGSTNYADSVKGRFTISRDNAKNPVYLQMNSLNPEDTAVYYCAASRVVWVGRPWYQVRGDYWGQGTQVTVSS

>  <polyreactivity (PSR sort gate)>
high polyreactivity

$$$$
>  <residue_string>
QVQLVESGGGLVQAGGSLRLSCAASGLIFKSYAMGWYRQAPGKERELVATISSSGSTNYADSVKGRFTISRDNAKNTVYLQMNSLKPEDTAVYYCNADDEVWWWIYDYWGQGTQVTVSS

>  <polyreactivity (PSR sort gate)>
low polyreactivity

$$$$
>  <residue_string>
QVQLVESGGGLDLAGGSLRLSCAASGRTCGYNAMGWYRQAPGKERELVATISWGGGSTYYADSVKGRFTISRDNAKNSVYLQMNSLKPEDTAVYYCNKVHYGRRHSYSGAIYGEDYWGQGTQVTVSS

>  <polyreactivity (PSR sort gate)>
high polyreactivity

$$$$
>  <residue_string>
QVQLVESGGGLVQAGGSLRLSCAASGFIFFPYVMGWYRQAPGKEREFVAAITGDGGSTYYADSVKGRFTISRDNAKNTVYLQMNSLKPEDTAVYYCAAEFGLWYWDWAASEDYWGQGTQVTVSS

>  <polyreactivity (PSR sort gate)>
high polyreactivity

$$$$
>  <residue_string>
QVQLVESGGGLVQAGGSLRLSCAASGSIFPFYAMGWYRQAPGKERELVAAITRSDGSTYYADSVKGRFTISRDNAKNTVYLQMNSLKPEDTAVYYCADYGYWGQGTQVTVSS

>  <polyreactivity (PSR sort gate)>
low polyreactivity

$$$$
>  <residue_string>
QVQLVESGGGLVQAGGSLRLSCAASGFTFTKYAMGWYRQAPGKERELVAAISGRGGSTYYADSVKGRFTISRDNAKNTVYLQMNSLKPEDTAVYYCAKYRYTVAGYNYWGQGTQVTVSS

>  <polyreactivity (PSR sort gate)>
high polyreactivity

$$$$
>  <residue_string>
QVQLVESGGGLVQAGGSLRLSCAASAFTFYYYDMGWYRQAPGKERELVAAIDTSDGSTYYADSVKGRFTISRDNAKNTVYLQMNSLKPEDTAVYYCSAEVDWVPFLLVYWGQGTQVTVSS

>  <polyreactivity (PSR sort gate)>
low polyreactivity

$$$$
>  <residue_string>
QVQLVESGGGLVQAGGSLRLSCAASGLIFSDNAMGWYRQARGKEREFVASISDSGTTTYYADSVKGRFTISRDNAKNTVYLQMNSLKPEDTAVYDCNARPGQSGARFGYWGQGTQVTVSS

>  <polyreactivity (PSR sort gate)>
high polyreactivity

$$$$
>  <residue_string>
QVQLVESGGGLVQAGGSLRLSCAASGSTFVQYAMGWYRQAPGKERELVAAITRSGGSTYYADSVKGRFTISRDNAKNTVYLQMNSLKPEDTAVYYCAARHYRSRDGYWGQGTQVTVSS

>  <polyreactivity (PSR sort gate)>
high polyreactivity

$$$$
